Origin of the recorded values: patent US20260151494A1

# SYSTEM: T1, human CD71 extracellular domain (human, UniProt P02786 89-760, biotinylated)
# T1 construct: also called hCD71; CD71-ECD
# T1 sequence (P02786 89-760): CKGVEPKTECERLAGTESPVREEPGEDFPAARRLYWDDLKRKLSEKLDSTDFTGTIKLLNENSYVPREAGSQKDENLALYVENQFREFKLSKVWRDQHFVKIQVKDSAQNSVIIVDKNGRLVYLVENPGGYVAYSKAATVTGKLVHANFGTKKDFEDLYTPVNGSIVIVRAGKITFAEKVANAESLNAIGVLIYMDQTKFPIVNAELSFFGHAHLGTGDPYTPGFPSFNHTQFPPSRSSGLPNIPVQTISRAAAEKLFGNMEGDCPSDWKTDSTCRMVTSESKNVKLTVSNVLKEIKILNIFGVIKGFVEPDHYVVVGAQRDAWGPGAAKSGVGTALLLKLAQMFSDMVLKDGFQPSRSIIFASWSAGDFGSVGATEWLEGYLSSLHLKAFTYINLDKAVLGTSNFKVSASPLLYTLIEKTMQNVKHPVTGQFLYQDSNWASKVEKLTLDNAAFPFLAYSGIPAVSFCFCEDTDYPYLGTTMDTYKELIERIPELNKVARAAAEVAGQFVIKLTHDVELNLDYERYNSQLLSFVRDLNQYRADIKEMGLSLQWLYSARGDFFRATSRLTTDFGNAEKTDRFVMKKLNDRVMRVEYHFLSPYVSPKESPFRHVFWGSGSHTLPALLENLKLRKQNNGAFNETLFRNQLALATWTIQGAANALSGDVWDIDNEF
# TEST_DESCRIPTION: primary ELISA; also: test concentration or dose not given here
READOUT_NAME: RLU (RLU)

{"BINDER": "CD71-binding FN3 domain of SEQ ID NO: 504 (designed binder) MLPAPKNLVVSRVTEDSARLSWTAPDAAFDSFFIGYLEPQPPGEAIGLVVPGSERSYDLTGLKPGTEYNVTIQGVKGGFPSHPLGAIFTT", "RESULT_UNIT": "RLU", "RLU": "1.22e+06"}
{"BINDER": "CD71-binding FN3 domain of SEQ ID NO: 448 (designed binder) MLPAPKNLVVSRVTEDSARLSWTAPDAAFDSFFIGYLEPQPPGEAIDLYVPGSERSYDLTGLKPGTEYNVTIQGVKGGFPSMPLYARFTT", "RESULT_UNIT": "RLU", "RLU": "4.73e+06"}
{"BINDER": "CD71-binding FN3 domain of SEQ ID NO: 516 (designed binder) MLPAPKNLVVSRVTEDSARLSWTAPDAAFDSFFIGYLEPQPPGEAISLWVPGSERSYDLTGLKPGTEYNVTIQGVKGGFPSSPLVAYFTT", "RESULT_UNIT": "RLU", "RLU": "4.73e+06"}
{"BINDER": "CD71-binding FN3 domain of SEQ ID NO: 533 (designed binder) MLPAPKNLVVSRVTEDSARLSWTAPDAAFDSFFIGYLEPQPPGEAINLFVPGSERSYDLTGLKPGTEYNVTIQGVKGGFPSMPLSAIFTT", "RESULT_UNIT": "RLU", "RLU": "3.18e+06"}
{"BINDER": "CD71-binding FN3 domain of SEQ ID NO: 514 (designed binder) MLPAPKNLVVSRVTEDSARLSWTAPDAAFDSFFIGYLEPQPPGEAIHLFVPGSERSYDLTGLKPGTEYNVTIQGVKGGFPSEPLIANFTT", "RESULT_UNIT": "RLU", "RLU": "5.92e+06"}

P = CD71-binding FN3 domain of SEQ ID NO: 511 (designed binder) MLPAPKNLVVSRVTEDSARLSWTAPDAAFDSFFIGYLEPQPPGEAIDLFVPGSERSYDLTGLKPGTEYNVTIQGVKGGFPSLPLVASFTT
Q = CD71-binding FN3 domain of SEQ ID NO: 513 (designed binder) MLPAPKNLVVSRVTEDSARLSWTAPDAAFDSFFIGYLEPQPPGEAISLYVPGSERSYDLTGLKPGTEYNVTIQGVKGGFPSLPLAAQFTT
Exercise: compare P and Q ; which one has the greater RLU? Please indicate the selected item by its label.
P
(P: 5.03e+06 RLU, Q: 2.52e+06 RLU)

P = CD71-binding FN3 domain of SEQ ID NO: 530 (designed binder) MLPAPKNLVVSRVTEDSARLSWTAPDAAFDSFFIGYLEPQPPGEAIDLLVPGSERSYDLTGLKPGTEYNVTIQGVKGGFPSEPLFAHFTT
Q = CD71-binding FN3 domain of SEQ ID NO: 487 (designed binder) MLPAPKNLVVSRVTEDSARLSWTAPDAAFDSFFIGYLEPQPPGEAIGLRVPGSERSYDLTGLKPGTEYNVTIQGVKGGFPSEPLIADFTT
Smaller RLU value? Options are P and Q // caller expects the label of the chosen entry
Q
(Q: 2.27e+06 RLU, P: 4.61e+06 RLU)

A = CD71-binding FN3 domain of SEQ ID NO: 491 (designed binder) MLPAPKNLVVSRVTEDSARLSWTAPDAAFDSFFIGYLEPQPSGEAIHLIVPGSERSYDLTGLKPGTEYNVTIQGVKGGFPSDPLVASFTT
B = CD71-binding FN3 domain of SEQ ID NO: 473 (designed binder) MLPAPKNLVVSRVTEDSARLSWTAPDAAFDSFFIGYLEPQPPGEAIDLWVPGSERSYDLTGLKPGTEYNVTIQGVKGGFPSLPLSASFTT
Quick one: lower RLU, A or B ? # reply format: chosen label
B
(B: 2.91e+06 RLU, A: 4.66e+06 RLU)
